Molecular target: T1, mouse GIP receptor (mouse) (UniProt Q0P543)
T1 sequence (looked up): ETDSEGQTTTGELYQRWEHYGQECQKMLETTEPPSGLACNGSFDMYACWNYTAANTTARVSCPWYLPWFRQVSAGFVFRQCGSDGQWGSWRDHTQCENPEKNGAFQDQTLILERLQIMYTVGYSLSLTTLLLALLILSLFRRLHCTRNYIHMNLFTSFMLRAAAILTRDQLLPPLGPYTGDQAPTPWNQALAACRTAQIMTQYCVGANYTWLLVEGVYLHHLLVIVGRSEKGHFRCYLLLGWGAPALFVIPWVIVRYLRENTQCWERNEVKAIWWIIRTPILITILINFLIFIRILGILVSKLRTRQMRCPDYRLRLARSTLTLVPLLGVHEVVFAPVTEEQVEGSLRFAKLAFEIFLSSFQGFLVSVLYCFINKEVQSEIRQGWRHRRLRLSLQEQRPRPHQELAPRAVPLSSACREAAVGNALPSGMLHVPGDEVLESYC
Assay: cell-based or functional assay
Decide using cAMP EC50: a value greater than or equal to 0.09 nM is y, a smaller one is n.

* IP307 (Fc fusion) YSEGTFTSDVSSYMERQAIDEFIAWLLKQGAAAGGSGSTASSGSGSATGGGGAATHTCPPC | y
* IP422 (Fc fusion) YSEGTHTSDLRILLERQAIDEFIAFLLKGGGSGGGGSGGGGSGGGGSGGGGSGGGGSGGGGSGGGGSACPPC | n
* IP413 (Fc fusion) YSEGTFTSDYSKLLEEEASRLFIEWLLAGGGGGGSGGGGSGGGGSGGGGSATHTCPPC | y
* IP396 (Fc fusion) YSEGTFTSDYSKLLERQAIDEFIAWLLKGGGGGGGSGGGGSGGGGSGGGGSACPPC | y

Sourced from patent US20160185837A1
